# Tested on: Staphylococcus aureus S13E
# Assay name: MIC, standard agar-dilution assay, Staphylococcus aureus S13E
# Assay type: cell-based
# Experimental parameters: Staphylococcus aureus, S13E
Recorded log10(MIC) for the following molecules
Transform log10 | Measure MIC | Unit µg/mL

[in] Let me know recorded log10(MIC) for CCC1OC(=O)CC(O)C(C)C(OC2OC(C)C(O)C(N(C)C)C2O)C(CCSc2ccccc2)CC(C)C(=O)C=CC(C)=CC1COC1OC(C)C(O)C(OC)C1OC (stereo not drawn) , thanks.
[out] -0.60

[in] Let me know recorded log10(MIC) for CCC1OC(=O)CC(O)C(C)C(OC2OC(C)C(OC3CC(C)(O)C(O)C(C)O3)C(N(C)C)C2O)C(CCOc2ccc(C(=O)c3ccccc3)cc2)CC(C)C(=O)C=CC(C)=CC1COC1OC(C)C(O)C(OC)C1OC (stereo not drawn) , thanks.
[out] 0.00

[in] Let me know recorded log10(MIC) for CCC1OC(=O)CC(O)C(C)C(OC2OC(C)C(O)C(N(C)C)C2O)C(CC2SCCN2Cc2ccccc2)CC(C)C(=O)C=CC(C)=CC1COC1OC(C)C(O)C(OC)C1OC (stereo not drawn) , thanks.
[out] -0.60

[in] Let me know recorded log10(MIC) for CCC1OC(=O)CC(O)C(C)C(OC2OC(C)C(O)C(N(C)C)C2O)C(CCOc2ccc(C(=O)c3ccccc3)cc2)CC(C)C(=O)C=CC(C)=CC1COC1OC(C)C(O)C(OC)C1OC (stereo not drawn) , thanks.
[out] -0.60

[in] Let me know recorded log10(MIC) for CCC1OC(=O)CC(O)C(C)C(OC2OC(C)C(OC3CC(C)(O)C(O)C(C)O3)C(N(C)C)C2O)C(CCN2C(=O)c3ccccc3C2=O)CC(C)C(=O)C=CC(C)=CC1COC1OC(C)C(O)C(OC)C1OC (stereo not drawn) , thanks.
[out] 0.00

[in] Let me know recorded log10(MIC) for CCC1OC(=O)CC(O)C(C)C(OC2OC(C)C(O)C(N(C)C)C2O)C(CCOc2cccc(N(C)C)c2)CC(C)C(=O)C=CC(C)=CC1COC1OC(C)C(O)C(OC)C1OC (stereo not drawn) , thanks.
[out] -0.30

[in] Let me know recorded log10(MIC) for CCC1OC(=O)CC(O)C(C)C(OC2OC(C)C(OC3CC(C)(O)C(O)C(C)O3)C(N(C)C)C2O)C(CCOc2ccccc2)CC(C)C(=O)C=CC(C)=CC1COC1OC(C)C(O)C(OC)C1OC (stereo not drawn) , thanks.
[out] 0.00

[in] Let me know recorded log10(MIC) for CCC1OC(=O)CC(O)C(C)C(OC2OC(C)C(O)C(N(C)C)C2O)C(CCOc2ccc([N+](=O)[O-])cc2)CC(C)C(=O)C=CC(C)=CC1COC1OC(C)C(O)C(OC)C1OC (stereo not drawn) , thanks.
[out] -0.30

[in] Let me know recorded log10(MIC) for CCOC(=O)NN(CCC1CC(C)C(=O)C=CC(C)=CC(COC2OC(C)C(O)C(OC)C2OC)C(CC)OC(=O)CC(O)C(C)C1OC1OC(C)C(OC2CC(C)(O)C(O)C(C)O2)C(N(C)C)C1O)C(=O)OCC (stereo not drawn) , thanks.
[out] 0.30

[in] Let me know recorded log10(MIC) for CCC1CC(C)C(=O)C=CC(C)=CC(COC2OC(C)C(O)C(O)C2OC)C(CC)OC(=O)CC(O)C(C)C1OC1OC(C)C(O)C(N(C)C)C1O (stereo not drawn) , thanks.
[out] -0.60

[in] Let me know recorded log10(MIC) for CCC1OC(=O)CC(O)C(C)C(OC2OC(C)C(OC3CC(C)(O)C(O)C(C)O3)C(N(C)C)C2O)C(C)CC(C)C(=O)C=CC(C)=CC1COC1OC(C)C(O)C(O)C1OC (stereo not drawn) , thanks.
[out] 0.30

[in] Let me know recorded log10(MIC) for CCC1OC(=O)CC(O)C(C)C(OC2OC(C)C(O)C(N(C)C)C2O)C(CCOCCc2ccccc2)CC(C)C(=O)C=CC(C)=CC1COC1OC(C)C(O)C(OC)C1OC (stereo not drawn) , thanks.
[out] -0.60

----------
Recorded MIC for the following molecules
# System: Staphylococcus aureus V41
# Assay name: MIC, standard agar-dilution assay, Staphylococcus aureus V41
# Type: cell-based
# Experimental parameters: Staphylococcus aureus V41; penicillin-resistant strain; agar dilution
Your answer should be a plain number; it is taken to be in µg/mL.

Some molecules with known MIC results, for comparison:
| Molecule | Units symbol | MIC |
| --- | --- | --- |
| CCC1OC(=O)CC(O)C(C)C(OC2OC(C)C(O)C(N(C)C)C2O)C(CCS(=O)(=O)c2ccc(C)cc2)CC(C)C(=O)C=CC(C)=CC1COC1OC(C)C(O)C(OC)C1OC (stereo not shown) [Compound 46] | µg/mL | 0.25 |
| CCC1OC(=O)CC(O)C(C)C(OC2OC(C)C(O)C(N(C)C)C2O)C(CCOc2ccc(Oc3ccccc3)cc2)CC(C)C(=O)C=CC(C)=CC1COC1OC(C)C(O)C(OC)C1OC (stereo not shown) [Compound 47, 20-DH-20-O-(p-Phenoxyphenyl)desmycosin] | µg/mL | 0.5 |
| CCOC(=O)NN(CCC1CC(C)C(=O)C=CC(C)=CC(COC2OC(C)C(O)C(OC)C2OC)C(CC)OC(=O)CC(O)C(C)C1OC1OC(C)C(O)C(N(C)C)C1O)C(=O)OCC (stereo not shown) [Compound 45] | µg/mL | 0.5 |

[in] Give MIC; test system Staphylococcus aureus V41; molecule CC[C@H]1OC(=O)C[C@@H](O)[C@H](C)[C@@H](O[C@@H]2O[C@H](C)[C@H](O)[C@H](N(C)C)[C@H]2O)[C@@H](CCOc2ccccc2)C[C@@H](C)C(=O)/C=C/C(C)=C/[C@@H]1COC1O[C@H](C)[C@@H](O)[C@@H](OC)[C@H]1OC (stereo partly shown) [Compound 33, 20-DH-20-O-Phenyldesmycosin]
[out] 0.25

----------
# Tested on: Streptococcus bovis 80
# Assay name: MIC, broth-dilution microtiter test, Streptococcus bovis 80
# Assay type: cell-based
# Experimental parameters: Streptococcus equinus; Streptococcus bovis 80; broth-dilution microtiter; read-out: MIC
Recorded MIC for the following molecules
Your answer should be a plain number; it is taken to be in µg/mL.

Some molecules with known MIC results, for comparison:
| Molecule | Reported endpoint | Observed |
| --- | --- | --- |
| CCC1OC(=O)CC(O)C(C)C(OC2OC(C)C(OC3CC(C)(O)C(O)C(C)O3)C(N(C)C)C2O)C(CCOc2ccc(C(=O)c3ccccc3)cc2)CC(C)C(=O)C=CC(C)=CC1COC1OC(C)C(O)C(OC)C1OC (centres unmarked) | MIC | 1.56 |
| CCC1OC(=O)CC(O)C(C)C(OC2OC(C)C(O)C(N(C)C)C2O)C(CCOC(C)=O)CC(C)C(=O)C=CC(C)=CC1COC1OC(C)C(O)C(OC)C1OC (centres unmarked) | MIC | 0.78 |
| CCC1OC(=O)CC(O)C(C)C(OC2OC(C)C(O)C(N(C)C)C2O)C(CCF)CC(C)C(=O)C=CC(C)=CC1COC1OC(C)C(O)C(OC)C1OC (centres unmarked) | MIC | 1.56 |
| CCC1OC(=O)CC(O)C(C)C(OC2OC(C)C(OC3CC(C)(O)C(O)C(C)O3)C(N(C)C)C2O)C(CCOC(=O)COc2ccccc2)CC(C)C(=O)C=CC(C)=CC1COC1OC(C)C(O)C(OC)C1OC (centres unmarked) | MIC | 3.12 |
| CCC1OC(=O)CC(O)C(C)C(OC2OC(C)C(OC3CC(C)(O)C(O)C(C)O3)C(N(C)C)C2O)C(CCOc2ccc([N+](=O)[O-])cc2)CC(C)C(=O)C=CC(C)=CC1COC1OC(C)C(O)C(OC)C1OC (centres unmarked) | MIC | 25 |

[in] Let me know recorded MIC for CCC1OC(=O)CC(O)C(C)C(OC2OC(C)C(OC3CC(C)(O)C(O)C(C)O3)C(N(C)C)C2O)C(CCOc2ccc(OC)cc2)CC(C)C(=O)C=CC(C)=CC1COC1OC(C)C(O)C(OC)C1OC (centres unmarked) , thanks.
[out] 25

----------
# System: Staphylococcus aureus X1.1
# Assay name: MIC, standard agar-dilution assay, Staphylococcus aureus X1.1
# Type: cell-based
# Experimental parameters: Staphylococcus aureus, X1.1
Reported endpoint: MIC (µg/mL)
Your answer should be a plain number; it is taken to be in µg/mL.

| Compound | MIC, µg/mL |
| --- | --- |
| CCC1OC(=O)CC(O)C(C)C(OC2OC(C)C(O)C(N(C)C)C2O)C(CCOc2cccc(N(C)C)c2)CC(C)C(=O)C=CC(C)=CC1COC1OC(C)C(O)C(OC)C1OC (centres unmarked) [Compound 39] | 0.5 |
| CCC1OC(=O)CC(O)C(C)C(OC2OC(C)C(O)C(N(C)C)C2O)C(CCSc2nnnn2C)CC(C)C(=O)C=CC(C)=CC1COC1OC(C)C(O)C(OC)C1OC (centres unmarked) [Compound 24] | 0.5 |
| CCC1OC(=O)CC(O)C(C)C(OC2OC(C)C(OC3CC(C)(O)C(O)C(C)O3)C(N(C)C)C2O)C(CCNC(=O)Cc2ccccc2)CC(C)C(=O)C=CC(C)=CC1COC1OC(C)C(O)C(OC)C1OC (centres unmarked) [Compound 3] | 1 |
| CCC1OC(=O)CC(O)C(C)C(OC2OC(C)C(O)C(N(C)C)C2O)C(CCCl)CC(C)C(=O)C=CC(C)=CC1COC1OC(C)C(O)C(OC)C1OC (centres unmarked) [Compound 21, 20-DH-DO-20-Chlorodesmycosin] | 0.25 |

Now for another entry.
[in] Let me know recorded MIC for CCC1OC(=O)CC(O)C(C)C(OC2OC(C)C(OC3CC(C)(O)C(O)C(C)O3)C(N(C)C)C2O)C(CCOc2ccc(-c3ccccc3)cc2)CC(C)C(=O)C=CC(C)=CC1COC1OC(C)C(O)C(OC)C1OC (centres unmarked) [Compound 18, 20-DH-20-O-(p-Phenylphenyl)tylosin] , thanks.
[out] 2
